# Test system: PC-12
# method: Neuroprotective activity against Abeta25-35-induced […] cells assessed as cell viability at 1 uM preincubated for 2 hrs prior Abeta25-35 challenge measured after 24 hrs by MTT assay
# Assay type: functional
# condition-parameters: Rattus norvegicus
The source made the active and inactive calls. The calls are words filed in the database; no cut-off is given here.
assay-readout: Activity

1) COc1ccc(/C=C/C(=O)[C@H]2CC[C@H]3[C@@H]4C[C@@H]5O[C@@]56C[C@@H](O)CC[C@]6(C)[C@H]4CC[C@]23C)cc1 ... inactive
2) C[C@]12CC[C@H]3[C@@H](C[C@@H]4O[C@@]45C[C@@H](O)CC[C@]35C)[C@@H]1CC[C@@H]2C(=O)/C=C/c1ccc(C#N)cc1 ... inactive
3) COc1ccccc1/C=C/C(=O)[C@H]1CC[C@H]2[C@@H]3C[C@@H]4O[C@@]45C[C@@H](O)CC[C@]5(C)[C@H]3CC[C@]12C ... inactive

====

# Tested on: PC-12
# method: Neuroprotective activity against Abeta25-35-induced […] cells assessed as cell viability at 1 uM preincubated for 2 hrs prior Abeta25-35 challenge measured after 24 hrs by MTT assay
# Format: functional
# condition-parameters: Rattus norvegicus
The source made the active and inactive calls. The calls are words filed in the database; no cut-off is given here.
assay-readout: Activity

1) C[C@]12CC[C@H]3[C@@H](C[C@@H]4O[C@@]45C[C@@H](O)CC[C@]35C)[C@@H]1CC[C@@H]2C(=O)/C=C/c1ccc(Cl)cc1Cl ... inactive
2) COc1cccc(/C=C/C(=O)[C@H]2CC[C@H]3[C@@H]4C[C@@H]5O[C@@]56C[C@@H](O)CC[C@]6(C)[C@H]4CC[C@]23C)c1 ... inactive
3) C[C@]12CC[C@H]3[C@@H](C[C@@H]4O[C@@]45C[C@@H](O)CC[C@]35C)[C@@H]1CC[C@@H]2C(=O)/C=C/c1ccccc1F ... inactive
4) C[C@]12CC[C@H]3[C@@H](C[C@@H]4O[C@@]45C[C@@H](O)CC[C@]35C)[C@@H]1CC[C@@H]2C(=O)/C=C/c1ccccc1Br ... inactive
5) C[C@]12CC[C@H]3[C@@H](CC=C4C[C@@H](O)CC[C@@]43C)[C@@H]1CC[C@@H]2C(=O)/C=C/c1ccccn1 ... inactive
6) C[C@]12CC[C@H]3[C@@H](CC=C4C[C@@H](O)CC[C@@]43C)[C@@H]1CC[C@@H]2C(=O)/C=C/c1ccccc1C(F)(F)F ... inactive

====

# Test system: PC-12
# method: Neuroprotective activity against Abeta25-35-induced […] cells assessed as cell viability at 1 uM preincubated for 2 hrs prior Abeta25-35 challenge measured after 24 hrs by MTT assay
# Format: functional
# condition-parameters: Rattus norvegicus
The source made the active and inactive calls. The calls are words filed in the database; no cut-off is given here.
assay-readout: Activity

1. CCOc1ccccc1/C=C/C(=O)[C@H]1CC[C@H]2[C@@H]3C[C@@H]4O[C@@]45C[C@@H](O)CC[C@]5(C)[C@H]3CC[C@]12C ... inactive
2. C[C@]12CC[C@H]3[C@@H](C[C@@H]4O[C@@]45C[C@@H](O)CC[C@]35C)[C@@H]1CC[C@@H]2C(=O)/C=C/c1ccccc1C(F)(F)F ... inactive
3. CC(=O)[C@H]1CC[C@H]2[C@@H]3C[C@@H]4O[C@@]45C[C@@H](O)CC[C@]5(C)[C@H]3CC[C@]12C ... inactive
